- Measured On: recombinant full-length human PDE IVa (rhPDEIVa) (Homo sapiens, UniProt P27815, M723I)
- Construct: a cDNA insert encoding for a full-length human PDE IVa enzyme; made in house; host or cells: CHO-K1 cells, stably transfected (also expressing the prostanoid IP receptor); 100,000xg supernatant of the sonicate
- Sequence (P27815 whole entry M723I): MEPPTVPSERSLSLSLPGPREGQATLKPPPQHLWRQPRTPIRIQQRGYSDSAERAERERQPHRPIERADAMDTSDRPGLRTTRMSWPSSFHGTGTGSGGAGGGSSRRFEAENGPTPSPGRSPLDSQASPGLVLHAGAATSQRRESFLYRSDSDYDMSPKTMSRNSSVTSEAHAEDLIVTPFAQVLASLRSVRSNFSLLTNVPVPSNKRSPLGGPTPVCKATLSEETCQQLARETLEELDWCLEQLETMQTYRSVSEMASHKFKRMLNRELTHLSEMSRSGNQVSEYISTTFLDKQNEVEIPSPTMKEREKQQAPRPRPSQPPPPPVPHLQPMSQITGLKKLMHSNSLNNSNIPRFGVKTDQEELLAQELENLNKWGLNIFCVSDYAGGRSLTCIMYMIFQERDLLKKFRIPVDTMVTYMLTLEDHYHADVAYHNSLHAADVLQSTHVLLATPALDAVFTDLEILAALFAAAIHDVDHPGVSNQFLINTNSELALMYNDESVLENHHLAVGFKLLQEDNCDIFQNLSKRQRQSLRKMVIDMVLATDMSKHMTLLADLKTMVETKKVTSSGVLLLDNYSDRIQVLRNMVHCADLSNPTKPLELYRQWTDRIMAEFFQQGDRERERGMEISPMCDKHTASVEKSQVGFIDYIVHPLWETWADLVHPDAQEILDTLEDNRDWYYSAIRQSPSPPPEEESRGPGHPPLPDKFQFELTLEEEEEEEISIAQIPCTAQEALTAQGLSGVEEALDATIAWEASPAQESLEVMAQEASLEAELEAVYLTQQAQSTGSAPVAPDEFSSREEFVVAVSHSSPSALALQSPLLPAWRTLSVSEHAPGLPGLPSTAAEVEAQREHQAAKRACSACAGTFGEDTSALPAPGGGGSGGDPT
- Test: Phosphodiesterase Scintillation Proximity Assay, inhibition of soluble rhPDE IVa (100,000×g supernatant of transfected CHO-K1 cells)
- Type: biochemical
- Measurement Conditions: 100 mM MgCl2; read-out: IC50, inhibition of soluble rhPDEIVa
Observed Property: IC50

• O=[N+]([O-])c1cccc(-c2cc(Cc3ccncc3)cc3cccnc23)c1 = 0.5 nM

###

- Measured On: recombinant full-length human PDE IVa (rhPDEIVa) (Homo sapiens, UniProt P27815, M723I)
- Construct: a cDNA insert encoding for a full-length human PDE IVa enzyme; made in house; host or cells: CHO-K1 cells, stably transfected (also expressing the prostanoid IP receptor); 100,000xg supernatant of the sonicate
- Test: Phosphodiesterase Scintillation Proximity Assay, inhibition of soluble rhPDE IVa (100,000×g supernatant of transfected CHO-K1 cells)
- Type: biochemical
- Measurement Conditions: 5 mM MgCl2; read-out: IC50, inhibition of soluble rhPDEIVa
- Procedure: Inhibition of soluble rhPDEIVa by specific inhibitors was examined at 100 nM substrate. Enzyme activity was determined as described in Materials and Methods using the Amersham SPA beads that specifically bind 5'AMP. Inhibition of soluble rhPDEIVa by specific inhibitors was examined in the presence of 5 mM to 100 mM MgCl2. Enzyme activity was determined as described in Materials and Methods using the Amersham SPA beads that specifically bind 5'AMP in the presence of […] cAMP substrate.
pIC50: −log10 of the molar value.
Observed Property: pIC50

* O=[N+]([O-])c1cccc(-c2cc(Cc3ccncc3)cc3cccnc23)c1 | 6.85

Every entry's value here was drawn from patent US5922557A.
